Entries annotated with measured normalized growth
- Measurement notes: chemical genetic growth profiling, strain panel (AID 1159580);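 note: tested at 20 µM; growth read once vehicle control cultures reached saturation at 30 °C; 1 = growth at the plate median or of vehicle wells; lower values mean less growth of the strain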
- Experimental parameters: S. cerevisiae deletion strains, growth OD, locus YML032C, strain rad52, hits give low values
Among all 5,500 compounds or so, about 2,000 (36%) were called active. Another 18% or so got no clear call; they are omitted. This is one part of the list.
Keep the answer to the number alone.

Past entries and their recorded results:
COC1=CC(=O)C=C(OC)C1=O = 0.973
O=C(O)c1cc(O)ccc1O = 1.01
O=C(/C=C(\O)c1ccccc1)c1ccccc1O = 0.453

# normalized growth lookup, item "Cc1cc(N)c2ccccc2[n+]1CCCCCCCCCC[n+]1c(C)cc(N)c2ccccc21"
0.0723

# normalized growth lookup, item Cc1c(OCC(F)(F)F)ccnc1CS(=O)c1nc2ccccc2[nH]1 (stereo unspecified)
0.93

# normalized growth lookup, item "CCOC(=O)C1=C(O)C(=O)N(Cc2ccccc2)C1"
1.03

----------
- Measurement notes: chemical genetic growth profiling, strain panel (AID 1159580)
- Experimental parameters: S. cerevisiae deletion strains, growth OD, locus YDR502C, strain sam2
Out of some 5,500 compounds screened, about 2,000 (36%) were called active. Roughly 18% stayed inconclusive and do not appear here. Cut-off read from the data, not from the text of the source: active = normalized growth mostly below about 0.91 (no sharp cut-off); inconclusive = no clear call, values can overlap the other calls; inactive = mostly above about 0.92. The list shows a part of the results.
The reply should name one outcome from active, inactive

Solved cases below.
COC1CC(O[C@H]2CC[C@]3(C=O)C4CC[C@]5(C)C(C6=CC(=O)OC6)CC[C@]5(O)C4CC[C@]3(O)C2)OC(C)C1O (stereo not given in full) = inactive
O=C(/C=C(\O)c1ccccc1)c1ccccc1O = active
COP(N)(=O)SC (stereo not given) = inactive
CO[C@@H]1C[C@H](O[C@H]2CC[C@]3(C)C4CC[C@]5(C)[C@@H](C6=CC(=O)OC6)CC[C@]5(O)[C@@H]4CC[C@]3(O)C2)O[C@H](C)[C@@H]1O (stereo not given in full) = active
COc1ccc(-c2cc(=O)c3c(O)cc(O)cc3o2)cc1 = inactive

How was "N#Cc1c(Cl)cccc1Cl" classified in this test?
inactive

How was "CCCc1nn(C)c2c(=O)[nH]c(-c3cc(S(=O)(=O)N4CCN(C)CC4)ccc3OCC)nc12" classified in this test?
inactive

How was CC[C@H]1CN2CCC1C[C@@H]2[C@@H](O)c1ccnc2ccc(OC)cc12 (stereo not given in full) classified in this test?
inactive

How was "COc1ccc(-c2cc(=O)c3c(O)c(OC)c(OC)cc3o2)cc1O" classified in this test?
inactive

How was C/C=C/CC(C)C(O)C1C(=O)NC(CC)C(=O)N(C)CC(=O)N(C)C(CC(C)C)C(=O)NC(C(C)C)C(=O)N(C)C(CC(C)C)C(=O)NC(C)C(=O)NC(C)C(=O)N(C)C(CC(C)C)C(=O)N(C)C(CC(C)C)C(=O)N(C)C(C(C)C)C(=O)N1C (stereo not given) classified in this test?
inactive

----------
- Measurement notes: chemical genetic growth profiling, strain panel (AID 1159580);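 note: tested at 20 µM; growth read once vehicle control cultures reached saturation at 30 °C; 1 = growth at the plate median or of vehicle wells; lower values mean less growth of the strain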
- Experimental parameters: S. cerevisiae deletion strains, growth OD, locus YDR052C, strain DBF4, hits give low values
The whole screen tested about 5,500 compounds, of which about 2,000 (36%) were called active. Another 18% or so got no clear call; they are omitted. This is one part of the list.
Metric: normalized growth
Keep the answer to the number alone.

O=C1/C(=C/c2c[nH]c3ccccc23)CSc2ccccc21 = 0.985
O=C(Nc1cc2ccccc2s1)N1CCN(Cc2c(F)cccc2Cl)CC1 = 0.986
O=S(=O)(Nc1ccccc1Sc1c(Cl)cncc1Cl)c1ccc(Cl)cc1 = 0.984
Cc1ccc(OS(=O)(=O)c2c(Cl)sc(Cl)c2Br)c([N+](=O)[O-])n1 = 0.968
O=C(O/N=C1/CCCc2[nH]c3ccccc3c21)c1ccc(Cl)cc1Cl = 0.985

# normalized growth lookup, item "N#Cc1nccnc1N1CCN(C(=O)Nc2cc(Cl)cc(Cl)c2)CC1"
0.969

# normalized growth lookup, item "Cc1cc(Br)c(O)c(/C=N\NC(=S)NC(C)(C)C)c1"
0.982

# normalized growth lookup, item "O=C(NC(=S)NNc1ncc(C(F)(F)F)cc1Cl)c1cccs1"
0.581

# normalized growth lookup, item "N#Cc1ccc2[nH]cc(CCN(Cc3ccccc3)Cc3ccccc3)c2c1"
0.992

# normalized growth lookup, item "Cc1ccc(Sc2ncccc2NS(=O)(=O)c2ccc(Cl)cc2)cc1"
0.952

# normalized growth lookup, item "CN(C)/C=C1\CSc2ccc(Cl)cc2C1=O"
0.967

# normalized growth lookup, item "CC(C)/C(=N/OC(=O)c1ccc([N+](=O)[O-])cc1)c1ccccc1"
0.979

# normalized growth lookup, item "O=c1cc(CSc2ccc(Cl)cc2)c2ccc(O)cc2o1"
0.962

# normalized growth lookup, item "ONC(=Nc1ccccc1Cl)c1ccccc1Cl"
0.983

# normalized growth lookup, item "CN1/C(=C/C=C/c2ccc3ccccc3[n+]2C)C=Cc2ccccc21"
0.889

# normalized growth lookup, item "O=C1OC(c2ccccc2)=C/C1=C/c1ccccc1"
0.969

# normalized growth lookup, item "O=C1Nc2ccccc2/C1=C\c1cccc2ccccc12"
0.976

# normalized growth lookup, item "FC(F)(F)Sc1ccc(OCc2n[nH]c(=S)n2-c2ccccc2)cc1"
0.989

# normalized growth lookup, item "C/C(=N/NC(N)=S)c1csc(-c2ccccc2)n1"
0.944

# normalized growth lookup, item "N#C/C(N=Cc1cc(Cl)cc(Cl)c1O)=C(\C#N)N=Cc1cc(Cl)cc(Cl)c1O"
0.936

----------
Entries annotated with measured normalized growth
- Measurement notes: chemical genetic growth profiling, strain panel (AID 1159580);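 note: tested at 20 µM; growth read once vehicle control cultures reached saturation at 30 °C; 1 = growth at the plate median or of vehicle wells; lower values mean less growth of the strain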
- Experimental parameters: S. cerevisiae deletion strains, growth OD, locus YLR262C, strain YPT6, hits give low values
Out of some 5,500 compounds screened, about 2,000 (36%) were called active. Another 18% or so got no clear call; they are omitted. The list shows a part of the results.
Keep the answer to the number alone.

Past entries and their recorded results:
COC(=O)CC1C(C)(C)C(OC(C)=O)[C@@H]2[C@@H](OC(C)=O)[C@]34O[C@@]2(O)[C@]1(C)C3CC[C@]1(C)C4=CC(=O)O[C@H]1c1ccoc1 (stereo not given in full) = 0.899
Cc1ccccc1N1C(=O)c2cc(S(N)(=O)=O)c(Cl)cc2NC1C (stereo not given) = 1.01
NCCCN = 1.14
O=C(O/N=C1/CCCc2[nH]c3ccccc3c21)c1ccc(Cl)cc1Cl = 0.776
CC(C)Nc1nc(Cl)nc(NC(C)C)n1 = 0.984
CC1Cc2ccccc2N1NC(=O)c1ccc(Cl)c(S(N)(=O)=O)c1 (stereo not given) = 1.04
CC(=O)[C@@]1(O)CCC2C3C=C(Cl)C4=CC(=O)[C@@H]5CC5[C@]4(C)C3CC[C@@]21C (stereo not given in full) = 1
CSc1nc(NC(C)C)nc(NC(C)C)n1 = 1.03
COc1c(O)cc2c(c1O)[C@H]1O[C@H](CO)[C@@H](O)[C@H](O)[C@@H]1OC2=O = 1.07

Okay, now this compound:
# normalized growth lookup, item "CC(C)(C)OC(=O)NCc1n[nH]c(=S)n1-c1ccccc1"
1.07

----------
- Measurement notes: chemical genetic growth profiling, strain panel (AID 1159580);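 note: tested at 20 µM; growth read once vehicle control cultures reached saturation at 30 °C; 1 = growth at the plate median or of vehicle wells; lower values mean less growth of the strain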
- Experimental parameters: S. cerevisiae deletion strains, growth OD, locus YJR066W, strain TOR1 (second series)
Hit rate of the full screen: of about 5,500 compounds, about 2,000 (36%) were called active. Another 18% or so got no clear call; they are omitted. No stated cut-off is given here; in the data, active means normalized growth mostly below about 0.91 (no sharp cut-off); inconclusive means no clear call, values can overlap the other calls; inactive means mostly above about 0.92. The list shows a part of the results.
The reply should name one outcome from Yes = active, No = inactive

COC(=O)/C=C1/OC(c2ccc(OC)cc2)=CC1=O = Yes

How was "ONC(=Nc1ccccc1Cl)c1ccccc1Cl" classified in this test?
No

How was "COc1ccc(N=C2SCC(c3ccc(C)cc3)=NN2CCO)cc1" classified in this test?
No

How was "O=c1cc(CSc2ccc(Cl)cc2)c2ccc(O)cc2o1" classified in this test?
No

How was "CC1(C)C=Cc2cc(/C(N)=N\OC(=O)Nc3cccc(C(F)(F)F)c3)ccc2O1" classified in this test?
No

How was "CCn1nc(C)cc1C(=O)Sc1cccc(Br)c1" classified in this test?
Yes

How was "O=C(NNc1cc(C(F)(F)F)cc(C(F)(F)F)c1)c1cnc2n(c1=O)CCS2" classified in this test?
No

How was "Cc1ccc(OS(=O)(=O)c2c(Cl)sc(Cl)c2Br)c([N+](=O)[O-])n1" classified in this test?
No

How was "O=C(Nc1cc2ccccc2s1)N1CCN(Cc2c(F)cccc2Cl)CC1" classified in this test?
No

How was "N/C(=N/OC(=O)Nc1cccc(C(F)(F)F)c1)c1ccc(OC(F)(F)F)cc1" classified in this test?
No

How was "COc1ccc(Br)c(C(=O)/C(C#N)=C/c2cccs2)c1" classified in this test?
Yes

Values were extracted from PubChem BioAssay AID1159580.
